Conditions: in methanol, 288.15 K
Assay Endpoint: solubility (mole fraction)
Returns: the value as a bare number; no unit string appended.

// CC#C[C@]1(O)CC[C@H]2[C@@H]3CCC4=CC(=O)CCC4=C3[C@@H](c3ccc(N(C)C)cc3)C[C@@]21C : solubility (mole fraction) value = 0.000982

###

Details: in ethyl acetate, 283.15 K
Assay Endpoint: solubility (mole fraction)
Returns: the value as a bare number; no unit string appended.

// CC#C[C@]1(O)CC[C@H]2[C@@H]3CCC4=CC(=O)CCC4=C3[C@@H](c3ccc(N(C)C)cc3)C[C@@]21C : solubility (mole fraction) value = 0.000152

###

Details: in ethanol, 273.15 K
Assay Endpoint: solubility (mole fraction)
Returns: the value as a bare number; no unit string appended.

// CC#C[C@]1(O)CC[C@H]2[C@@H]3CCC4=CC(=O)CCC4=C3[C@@H](c3ccc(N(C)C)cc3)C[C@@]21C : solubility (mole fraction) value = 0.000122

###

Conditions: in ethanol, 308.15 K
Assay Endpoint: solubility (mole fraction)
Returns: the value as a bare number; no unit string appended.

// CC#C[C@]1(O)CC[C@H]2[C@@H]3CCC4=CC(=O)CCC4=C3[C@@H](c3ccc(N(C)C)cc3)C[C@@]21C : solubility (mole fraction) value = 0.000401

###

Conditions: in ethanol, 283.15 K
Assay Endpoint: solubility (mole fraction)
Returns: the value as a bare number; no unit string appended.

// CC#C[C@]1(O)CC[C@H]2[C@@H]3CCC4=CC(=O)CCC4=C3[C@@H](c3ccc(N(C)C)cc3)C[C@@]21C : solubility (mole fraction) value = 0.000174

###

Conditions: in acetone, 298.15 K
Assay Endpoint: solubility (mole fraction)
Returns: the value as a bare number; no unit string appended.

// CC#C[C@]1(O)CC[C@H]2[C@@H]3CCC4=CC(=O)CCC4=C3[C@@H](c3ccc(N(C)C)cc3)C[C@@]21C : solubility (mole fraction) value = 0.000422

###

Details: in n-propanol, 308.15 K
Assay Endpoint: solubility (mole fraction)
Returns: the value as a bare number; no unit string appended.

// CC#C[C@]1(O)CC[C@H]2[C@@H]3CCC4=CC(=O)CCC4=C3[C@@H](c3ccc(N(C)C)cc3)C[C@@]21C : solubility (mole fraction) value = 0.000428

###

Conditions: in acetone, 293.15 K
Assay Endpoint: solubility (mole fraction)
Returns: the value as a bare number; no unit string appended.

// CC#C[C@]1(O)CC[C@H]2[C@@H]3CCC4=CC(=O)CCC4=C3[C@@H](c3ccc(N(C)C)cc3)C[C@@]21C : solubility (mole fraction) value = 0.000345

###

Conditions: in n-propanol, 298.15 K
Assay Endpoint: solubility (mole fraction)
Returns: the value as a bare number; no unit string appended.

// CC#C[C@]1(O)CC[C@H]2[C@@H]3CCC4=CC(=O)CCC4=C3[C@@H](c3ccc(N(C)C)cc3)C[C@@]21C : solubility (mole fraction) value = 0.00031

###

Conditions: in THF, 288.15 K
Assay Endpoint: solubility (mole fraction)
Returns: the value as a bare number; no unit string appended.

// CC#C[C@]1(O)CC[C@H]2[C@@H]3CCC4=CC(=O)CCC4=C3[C@@H](c3ccc(N(C)C)cc3)C[C@@]21C : solubility (mole fraction) value = 8.05e-05
